target: Grb2 SH2 (UniProt P62993); test: SH2 binding enrichment of the phosphorylated peptide, bacterial display (enrichment ratio); higher = better substrate or ligand; peptides without Tyr show the background;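 also: peptide library displayed on the E. coli surface as eCPX fusions, selected cells deep-sequenced, score is each peptide's frequency after selection divided by its frequency in the input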
Sequence (P62993 whole entry, looked up, the tested form may be a part): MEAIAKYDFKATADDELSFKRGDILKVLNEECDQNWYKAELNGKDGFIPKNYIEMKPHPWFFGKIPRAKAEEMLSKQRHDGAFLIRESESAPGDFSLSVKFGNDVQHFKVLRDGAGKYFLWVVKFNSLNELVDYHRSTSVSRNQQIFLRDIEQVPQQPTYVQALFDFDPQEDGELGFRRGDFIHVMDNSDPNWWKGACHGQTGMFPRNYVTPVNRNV
Classification scheme (SH2 binding enrichment): 1 (below 0.8), 2 (0.8 to below 0.9), 3 (0.9 or more)

Below, 8 sequences whose answers are already recorded.
entry sequence	label class
SDGGCYEQLFV [MC4R_Y41]	2
EEAAGYAQESQ [CAMKV_Y491]	3
VHFLVYHHHHH [CACNA1H_Y519_H516Y_YF]	3
MQMEEYRGWVE [BTNL2_Y91]	3
TQKLAYMELQQ [CENPF_Y700]	3
SPFAVYLFFTF [RPGRIP1_Y826_R827L_YF]	3
QTSTDYDIRFY [CSNK2A1_Y131_L128S]	1
HNELYYEEAEH [VANGL1_Y345]	2

Query :: Which category fits this record: SVVVPYELPEV [TP53_Y220_P222L]
Result :: 1

Query :: Into which bin does this sequence go? AGLEDYDRLRP [RAC3_Y64_Q61L]
Result :: 1

Query :: Pick a category. Item: LAGRFYALKSM [CKB_Y174_YF]
Result :: 3

Query :: Which bin, given its SH2 binding enrichment, does KPVDTYFDSTR [DYNC2H1_Y2230_M2227V_YF] occupy?
Result :: 2

Query :: For IHHIDYFKETT [FGFR1_Y653_K656E_YF] , which SH2 binding enrichment bin applies?
Result :: 2

Query :: Looking at APVEDYGGGGG [B4GALT6_Y382_I379V] , which class would you pick?
Result :: 1

Query :: State the class of the sequence shown: DNPAKYFILEN [DPP10_Y512_S517N]
Result :: 1

Query :: Just checking, what class would you give KREPQYSSHSS [SIPA1L3_Y1265_G1261R] here?
Result :: 3

Query :: # bin lookup: classify FCRHNYGAVES [HLA-DRB1_Y112_V114A_YF] by its SH2 binding enrichment
Result :: 3

Query :: Please let me know in which category the item TVSTRYTQPQP [SARG_Y259] belongs.
Result :: 1

Query :: Which class holds EPAVLYNLKDR [MYH7_Y103] ?
Result :: 1

Query :: Textbook exercise: identify the category of the sequence given here, CTTLHYNFMCN [TP53_Y234_I232L_YF] , according to its measured value.
Result :: 3

Query :: For this sequence, which bin applies? FSQQTYYPVSN [ABCD1_Y180_R182P]
Result :: 3

###

target: SHP2-C SH2; test: SH2 binding enrichment of the phosphorylated peptide, bacterial display (enrichment ratio); higher = better substrate or ligand; peptides without Tyr show the background
observed property: SH2 binding enrichment
Kindly provide the number alone.

Below, each entry is followed by its recorded SH2 binding enrichment result.
entry sequence	tested target	observed property	recorded result
FEDALYTVLHR [UNC13D_Y61_YF]	SHP2-C SH2	SH2 binding enrichment	0.812
EEEPVYKAEPE [HCLS1_Y360_E361K]	SHP2-C SH2	SH2 binding enrichment	0.509
TSSAGYRRTPS [ABI1_Y333_G331A]	SHP2-C SH2	SH2 binding enrichment	0.405
AEFGLYGAMVW [VSX2_Y222_R227W_YF]	SHP2-C SH2	SH2 binding enrichment	0.656
RIFDYYSARKA [STOX1_Y858]	SHP2-C SH2	SH2 binding enrichment	0.648
QSSALYEDHFL [ASS1_Y83_R86H_YF]	SHP2-C SH2	SH2 binding enrichment	1.13
DNPAKYFILEN [DPP10_Y512_S517N]	SHP2-C SH2	SH2 binding enrichment	0.636
ENGPYYTSYPP [GDAP2_Y488]	SHP2-C SH2	SH2 binding enrichment	0.708

Query :: Determine from records and report SH2 binding enrichment for MARDISRASFF [ALK_Y1278_Y1278S_YF]
Result :: 0.716

Query :: Provide SH2 binding enrichment value for the following sequence: EPAVLYNLKDR [MYH7_Y103]
Result :: 0.867

Query :: Given the sequence SISFDYCRVPM [BST2_Y8_T4I_YF] , write its reported SH2 binding enrichment.
Result :: 0.65

Query :: // fetch SH2 binding enrichment given entry LPIQTYSALNF [DES_Y423]
Result :: 0.834

Query :: Please report the measured SH2 binding enrichment for LNERHYGGLTG [PGAM2_Y92]
Result :: 0.53

Query :: Quickly give me recorded SH2 binding enrichment for IRTIDYRFTVS [IDS_Y497_W502S_YF]
Result :: 1.18

Query :: Provide one value: measured SH2 binding enrichment of FNSLPYQVPTS [CALCOCO2_Y358]
Result :: 0.871

Query :: Give me measured SH2 binding enrichment, please, for this sequence: VQVAYYTMMMN [SPATA17_Y84]
Result :: 1.56
